target: SMARCA4 (Homo sapiens); assay: HiBiT assay for protein degradation, Hela SMARCA4-HiBiT cells (A series); format: cell-based; set-up: fuse HiBiT to the carboxy terminus of SMARCA2 (Promega CS302365) or SMARCA4 (Promega CS3023225); host or cells: HeLa (CRISPR/Cas9 HiBiT knock-in); settings: read-out: SMARC A4 Hela HiBit DC50
Sequence (P51532 whole entry): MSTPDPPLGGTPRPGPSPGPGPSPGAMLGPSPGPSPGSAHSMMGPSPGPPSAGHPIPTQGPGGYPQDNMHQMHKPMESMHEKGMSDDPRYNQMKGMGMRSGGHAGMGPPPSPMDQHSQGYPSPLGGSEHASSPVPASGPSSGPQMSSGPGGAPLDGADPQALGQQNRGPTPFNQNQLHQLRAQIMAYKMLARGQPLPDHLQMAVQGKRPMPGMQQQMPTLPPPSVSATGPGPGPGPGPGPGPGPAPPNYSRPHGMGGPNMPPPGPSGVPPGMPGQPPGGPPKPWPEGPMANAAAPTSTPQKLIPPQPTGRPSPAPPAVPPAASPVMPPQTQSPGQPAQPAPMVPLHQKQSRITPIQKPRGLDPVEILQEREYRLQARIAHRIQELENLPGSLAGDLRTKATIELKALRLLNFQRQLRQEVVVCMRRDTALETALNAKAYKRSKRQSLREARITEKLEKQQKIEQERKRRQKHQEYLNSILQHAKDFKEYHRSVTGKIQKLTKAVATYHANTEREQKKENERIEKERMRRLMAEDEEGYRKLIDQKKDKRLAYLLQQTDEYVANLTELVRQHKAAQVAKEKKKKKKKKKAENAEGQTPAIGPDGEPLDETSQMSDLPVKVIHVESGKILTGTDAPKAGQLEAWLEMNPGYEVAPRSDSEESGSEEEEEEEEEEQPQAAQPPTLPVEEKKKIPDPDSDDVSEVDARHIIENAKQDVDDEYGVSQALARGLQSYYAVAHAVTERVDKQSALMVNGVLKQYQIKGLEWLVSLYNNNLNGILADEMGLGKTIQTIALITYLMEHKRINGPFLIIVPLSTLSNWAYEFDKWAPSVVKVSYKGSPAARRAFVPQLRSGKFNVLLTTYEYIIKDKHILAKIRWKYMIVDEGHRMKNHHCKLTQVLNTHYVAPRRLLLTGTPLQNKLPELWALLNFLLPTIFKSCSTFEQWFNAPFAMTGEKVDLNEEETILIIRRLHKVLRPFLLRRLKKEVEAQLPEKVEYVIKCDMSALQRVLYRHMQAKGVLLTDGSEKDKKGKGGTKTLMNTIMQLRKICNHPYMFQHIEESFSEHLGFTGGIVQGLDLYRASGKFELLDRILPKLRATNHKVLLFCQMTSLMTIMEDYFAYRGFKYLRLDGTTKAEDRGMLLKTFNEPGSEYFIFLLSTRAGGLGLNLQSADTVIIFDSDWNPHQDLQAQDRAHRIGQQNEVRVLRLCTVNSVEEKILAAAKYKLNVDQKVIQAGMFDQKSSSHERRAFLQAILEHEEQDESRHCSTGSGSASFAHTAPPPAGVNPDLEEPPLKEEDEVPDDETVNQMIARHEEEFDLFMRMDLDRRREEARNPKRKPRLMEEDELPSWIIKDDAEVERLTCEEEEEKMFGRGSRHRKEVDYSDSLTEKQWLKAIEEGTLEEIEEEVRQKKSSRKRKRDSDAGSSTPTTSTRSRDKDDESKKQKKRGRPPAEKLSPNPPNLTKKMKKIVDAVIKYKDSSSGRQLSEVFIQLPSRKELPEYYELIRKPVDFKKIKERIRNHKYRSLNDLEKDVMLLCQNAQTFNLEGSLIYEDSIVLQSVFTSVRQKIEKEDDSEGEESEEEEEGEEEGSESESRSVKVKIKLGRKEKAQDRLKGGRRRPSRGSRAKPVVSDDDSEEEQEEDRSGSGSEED
quantityMeasured: DC50

In the examples that follow, each entry is paired with its recorded DC50.
• Cc1ncsc1-c1ccc([C@H](C)NC(=O)[C@@H]2C[C@@H](O)CN2C(=O)[C@@H](NC(=O)CN2CCC(c3ccc4c(c3)-n3c(nc(=O)c5c(Br)cccc53)C43CCCCC3)CC2)C(C)(C)C)cc1 = < 100 nM
• Cc1ncsc1-c1ccc([C@H](C)NC(=O)[C@@H]2C[C@@H](O)CN2C(=O)[C@@H](n2cc(CCCN3CCC(c4ccc5c(c4)-n4c(nc(=O)c6c(Br)cccc64)C54CCCCC4)CC3)nn2)C(C)(C)C)cc1 = < 100 nM

Query: For the record Cc1ncsc1-c1ccc([C@H](C)NC(=O)[C@@H]2C[C@@H](O)CN2C(=O)[C@@H](n2cc([C@H]3CC[C@H](CN4CCC(c5ccc6c(c5)-n5c(nc(=O)c7c(Br)cccc75)C65CCCCC5)CC4)CC3)nn2)C(C)(C)C)cc1 , what value of DC50 is listed for SMARCA4 (Homo sapiens)?
Reply: < 100 nM

Query: CC(C)(C)[C@H](NC(=O)C1(F)CC1)C(=O)N1C[C@H](O)C[C@H]1C(=O)N[C@@H](CCCCCN1CCC(c2ccc3c(c2)-n2c(nc(=O)c4c(Br)cccc42)C32CCCCC2)CC1)c1ccc(Cl)cc1 ?
Reply: > 1000 nM

Query: Likewise for Cc1ncsc1-c1ccc([C@H](C)NC(=O)[C@@H]2C[C@@H](O)CN2C(=O)[C@@H](n2cc(CCN3CCC(c4ccc5c(c4)-n4c(nc(=O)c6c(Br)cccc64)C54CCCCC4)CC3)nn2)C(C)(C)C)cc1 ?
Reply: 100 to 500 nM

Query: Subsequent entry: Cc1ncsc1-c1ccc([C@H](C)NC(=O)[C@@H]2C[C@@H](O)CN2C(=O)[C@@H](n2cc(C3(CCN4CCC(c5ccc6c(c5)-n5c(nc(=O)c7c(Br)cccc75)C65CCCCC5)CC4)CC3)nn2)C(C)(C)C)cc1
Reply: < 100 nM

Query: Try this molecule too: Cc1ncsc1-c1ccc([C@H](C)NC(=O)[C@@H]2C[C@@H](O)CN2C(=O)[C@@H](n2cc(CCCCCCN3CCC(c4ccc5c(c4)-n4c(nc(=O)c6c(Br)cccc64)C54CCCCC4)CC3)nn2)C(C)(C)C)cc1
Reply: < 100 nM

Query: Query Cc1ncsc1-c1ccc([C@H](C)NC(=O)[C@@H]2C[C@@H](O)CN2C(=O)[C@@H](NC(=O)C2CC(CN3CCC(c4ccc5c(c4)C4(CCCCC4)c4nc(=O)c6c(Br)cccc6n4-5)CC3)C2)C(C)(C)C)cc1 (stereo partly drawn) next
Reply: > 1000 nM

Query: Same for Cc1ncsc1-c1ccc([C@H](C)NC(=O)[C@@H]2C[C@@H](O)CN2C(=O)[C@@H](NC(=O)C23CCC(CN4CCC(c5ccc6c(c5)-n5c(nc(=O)c7c(Br)cccc75)C65CCCCC5)CC4)(CC2)CC3)C(C)(C)C)cc1
Reply: > 1000 nM
